test: Inhibition of sRANKL-induced TRAP activity in mouse RAW264 cells by p-nitrophenolate release based TRAP assay; assay type: functional, cell-based; conditions: RAW264.7
pIC50: −log10 of the molar value.
endpoint label: pIC50

compound	measurement
C[C@@]12CCC(=O)c3coc(c31)C(=O)c1cc3c(cc12)C(=O)C=CC3=O [HELENAQUINONE]	5.70

Origin of values: ChEMBL document CHEMBL3351929
